- TARGET_UNDER_TEST: T1, CD81 (UniProt P60033 1-236, limits assumed)
- T1 construct: whole, on cells; also called CD81 receptor
- T1 sequence (looked up): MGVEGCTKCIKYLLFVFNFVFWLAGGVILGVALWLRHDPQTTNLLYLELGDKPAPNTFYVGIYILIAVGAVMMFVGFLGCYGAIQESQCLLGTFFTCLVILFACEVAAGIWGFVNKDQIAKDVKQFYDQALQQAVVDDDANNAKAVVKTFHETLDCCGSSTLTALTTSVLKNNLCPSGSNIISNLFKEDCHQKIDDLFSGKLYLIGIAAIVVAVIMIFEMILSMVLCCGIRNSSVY
- EXPERIMENT_NOTES: cell ELISA;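 also: antibody binding to HuH7 cells expressing CD81 versus a CD81-negative HuH7 control line, bound antibody detected by secondary reagent, absorbance at 450 nm with 620 nm reference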
Assign labels as follows, please: rule met for ELISA data below 0.1; rule not met for ELISA data equal to or exceeding 0.1.

- BINDER: "CD81K04 HC GG-03-hVH_1_69 / LC GG-04-hVK_4_1 (antibody, V domains shown, human constant region) VH: QVQLVQSGAEVKKPGSSVKVSCKASGYTFSSSWMNWVRQAPGQGLEWMGRIYSGDGDAIYAQKFQGRVTITADESTSTAYMELSSLRSEDTAVYYCAREGKTGDLLLRSWGQGTLVTVSS VL: DIVMTQSPDSLAVSLGERATINCKSSKSVSTSIYSYLAWYQQKPGQPPKLLIYYASTRESGVPDRFSGSGSGTDFTLTISSLQAEDVAVYYCQHSREFPYTFGQGTKLEIK"
  QUALITATIVE_LABEL: "rule met"
- BINDER: "CD81K04 HC JA_GG-13-hVH_1_69 / LC JA_GG-08-hVK_4_1 (antibody, V domains shown, human constant region) VH: QVQLVQSGAEVKKPGSSVKVSCKASGGTFSSSWMNWVRQAPGQGLEWMGRIYSGDGDAIYAQKFQGRVTITADESTSTAYMELSSLRSEDTAVYYCAREGKTGDLLLRSWGQGTLVTVSS VL: DIVMTQSPDSLAVSLGERATINCKSSKSVSTSIYSYMHWYQQKPGQPPKLLIKYASYLESGVPDRFSGSGSGTDFTLTISSLQAEDVAVYYCEHSREFPFTFGQGTKLEIK"
  QUALITATIVE_LABEL: "rule not met"

Q: In the record for CD81K04 HC GG-04-hVH_1_69 / LC GG-04-hVK_4_1 (antibody, V domains shown, human constant region) VH: QVQLVQSGAEVKKPGSSVKVSCKASGYTFSSSWMNWVRQAPGQGLEWMGRIYSGDGDAIYNQKFQGRATITADESTSTAYMELSSLRSEDTAVYYCAREGKTGDLLLRSWGQGTLVTVSS VL: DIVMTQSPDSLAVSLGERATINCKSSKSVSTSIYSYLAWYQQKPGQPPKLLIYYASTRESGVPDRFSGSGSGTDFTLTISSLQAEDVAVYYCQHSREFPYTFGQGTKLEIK , is ELISA data less than 0.1?
Result: rule not met

Q: ELISA data strictly < 0.1 for this binder? CD81K04 HC GG-02-hVH_1_69 / LC JA_GG-10-hVK_4_1 (antibody, V domains shown, human constant region) VH: QVQLVQSGAEVKKPGSSVKVSCKASGYTFSSSWMNWVRQAPGQGLEWMGRIYSGDGDAIYNQKFQGRVTITADESTSTAYMELSSLRSEDTAVYYCAREGKTGDLLLRSWGQGTLVTVSS VL: DIVMTQSPDSLAVSLGERATINCRASKSVSTSIYSYMHWYQQKPGQPPKLLIKYASYLESGVPDRFSGSGSGTDFTLTISSLQAEDVAVYYCEHSREFPFTFGQGTKLEIK
Result: rule not met

Q: API: query returns whether the binder falls strictly under 0.1 in ELISA data. Query: CD81K04 HC CD81K04 / LC GG-02-hVK_4_1 (antibody, V domains shown, human constant region) VH: QVQLQQSGPELVKPGASVKISCKASGYTFSSSWMNWVKQRPGKGLEWIGRIYSGDGDAIYNGKFKGKATLTADKSSSTAYMQLSSLTSEDSAVYFCAREGKTGDLLLRSWGQGSALTVSS VL: DIVMTQSPDSLAVSLGERATINCKSSKSVSTSIYSYMHWYQQKPGQPPKLLIYYASYRESGVPDRFSGSGSGTDFTLTISSLQAEDVAVYYCQHSREFPFTFGQGTKLEIK
Result: rule not met
